experimental-target: D(1A) dopamine receptor (Rattus norvegicus, UniProt P18901)
Sequence (P18901 whole entry): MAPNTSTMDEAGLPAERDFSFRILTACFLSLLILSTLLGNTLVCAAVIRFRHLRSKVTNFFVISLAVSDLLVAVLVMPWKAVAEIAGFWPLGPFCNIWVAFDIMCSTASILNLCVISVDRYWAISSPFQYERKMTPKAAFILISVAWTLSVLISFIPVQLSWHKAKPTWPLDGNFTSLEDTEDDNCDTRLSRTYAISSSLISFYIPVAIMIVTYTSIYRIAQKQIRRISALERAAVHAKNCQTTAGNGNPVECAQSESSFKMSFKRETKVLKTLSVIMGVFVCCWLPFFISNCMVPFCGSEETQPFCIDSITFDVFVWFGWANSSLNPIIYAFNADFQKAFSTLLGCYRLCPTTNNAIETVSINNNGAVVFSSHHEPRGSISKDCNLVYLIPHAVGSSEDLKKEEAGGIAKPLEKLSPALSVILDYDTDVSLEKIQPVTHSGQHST
experimental-protocol: In vitro ability to displace [3H]SCH-23390 binding from Dopamine 1 (D1) receptor in rat striatal membrane.
Assay type: cell membranes
pKi: −log10 of the molar value.
The reader will find reported pKi values listed item by item below.

molecule: COc1ccccc1N1CCN(CC2CC(=O)c3ccsc3C2)CC1.Cl (stereo unspecified)
censoring-sign: <
pKi: 5.00
//
molecule: Cl.O=C1CC(CN2CCC(c3noc4cc(F)ccc34)CC2)Cc2sccc21 (stereo unspecified)
censoring-sign: =
pKi: 6.89
//
molecule: Cl.O=C(c1ccc(F)cc1)C1CCN(CCC2CCc3ccsc3C2=O)CC1 (stereo unspecified)
censoring-sign: =
pKi: 6.25
//
molecule: Cl.O=C1c2sccc2CCC1CCN1CCC(c2noc3cc(F)ccc23)CC1 (stereo unspecified)
censoring-sign: =
pKi: 6.87
//
molecule: COc1ccccc1N1CCN(CCC2CCc3sccc3C2=O)CC1.Cl (stereo unspecified)
censoring-sign: =
pKi: 5.27
//
molecule: O=C(CCCN1CCN(CCC2CCc3ccccc3C2=O)CC1)c1ccc(F)cc1 (stereo unspecified)
censoring-sign: =
pKi: 5.87

====

Tested on: Mus musculus
experimental-protocol: In vivo Antipsychotic activity was quantified by inhibition of apomorphine-induced climbing(CL 95%) by mice
Format: functional
Overview of recorded ED50 for various compounds

compound: Cl.O=C(CCCN1CCN(CC2CC(=O)c3ccccc32)CC1)c1ccc(F)cc1 (stereo not given)
units: mg/kg
censoring-sign: >
ED50: 8

compound: Cc1nc2n(c(=O)c1CCN1CCC(c3noc4cc(F)ccc34)CC1)CCCC2
units: mg/kg
censoring-sign: =
ED50: 0.09

compound: Cl.O=C(c1ccc(F)cc1)C1CCN(CCC2CCc3sccc3C2=O)CC1 (stereo not given)
units: mg/kg
censoring-sign: =
ED50: 2.03

compound: Cl.O=C(CCCN1CCN(CC2CC(=O)c3ccsc3C2)CC1)c1ccc(F)cc1 (stereo not given)
units: mg/kg
censoring-sign: >
ED50: 8

compound: Cl.O=C1CC(CN2CCC(c3noc4cc(F)ccc34)CC2)Cc2sccc21 (stereo not given)
units: mg/kg
censoring-sign: =
ED50: 1.46

compound: O=C(CCCN1CCN(CCC2Cc3sccc3C2=O)CC1)c1ccc(F)cc1 (stereo not given)
units: mg/kg
censoring-sign: =
ED50: 3.34

compound: Cl.O=C1c2sccc2CCC1CCN1CCC(c2noc3cc(F)ccc23)CC1 (stereo not given)
units: mg/kg
censoring-sign: =
ED50: 0.5

compound: O=C(O)C(=O)O.O=C(c1ccc(F)cc1)C1CCN(CCC2Cc3sccc3C2=O)CC1 (stereo not given)
units: mg/kg
censoring-sign: =
ED50: 65

compound: Cl.O=C(CCCN1CCN(CCC2CCc3sccc3C2=O)CC1)c1ccc(F)cc1 (stereo not given)
units: mg/kg
censoring-sign: >
ED50: 15

compound: COc1ccccc1N1CCN(CC2CC(=O)c3ccccc32)CC1.Cl (stereo not given)
units: mg/kg
censoring-sign: >
ED50: 8

====

experimental-target: 5-hydroxytryptamine receptor 2A (Rattus norvegicus)
experimental-protocol: In vitro ability to displace [3H]ketanserin binding from 5-hydroxytryptamine 2A receptor in rat membrane.

compound: COc1ccccc1N1CCN(CCC2CCc3ccccc3C2=O)CC1 (stereo not given)
Ki: 40.7 nM
//
compound: Cl.O=C(CCCN1CCN(CC2CC(=O)c3ccccc32)CC1)c1ccc(F)cc1 (stereo not given)
Ki: 45.7 nM
//
compound: Cl.O=C1c2sccc2CCC1CCN1CCC(c2noc3cc(F)ccc23)CC1 (stereo not given)
Ki: 6.76 nM
//
compound: Cl.O=C1CC(CN2CCC(C(=O)c3ccc(F)cc3)CC2)c2ccccc21 (stereo not given)
Ki: 26.3 nM
//
compound: COc1ccccc1N1CCN(CCC2CCc3sccc3C2=O)CC1.Cl (stereo not given)
Ki: 145 nM

====

experimental-target: UniProt P14842
experimental-protocol: In vitro ability to displace [3H]ketanserin binding from 5-hydroxytryptamine 2A receptor in rat membrane.
pKi: −log10 of the molar value.
Lab note: anything with pKi at or over 8 counts as 1; the rest go in 0.

compound: Cl.O=C(c1ccc(F)cc1)C1CCN(CCC2CCc3sccc3C2=O)CC1 (stereo not given)
group-label: 1
--
compound: Cl.O=C(CCCN1CCN(CC2CC(=O)c3ccsc3C2)CC1)c1ccc(F)cc1 (stereo not given)
group-label: 0
--
compound: O=C(CCCN1CCN(CC2CC(=O)c3ccccc3C2)CC1)c1ccc(F)cc1 (stereo not given)
group-label: 0
--
compound: Cl.O=C1c2ccsc2CC1CCN1CCC(c2noc3cc(F)ccc23)CC1 (stereo not given)
group-label: 1
--
compound: Cl.O=C1CC(CN2CCC(c3noc4cc(F)ccc34)CC2)Cc2sccc21 (stereo not given)
group-label: 1
--
compound: COc1ccccc1N1CCN(CC2CC(=O)c3ccsc3C2)CC1.Cl (stereo not given)
group-label: 0
--
compound: COc1ccccc1N1CCN(CC2CC(=O)c3ccccc3C2)CC1 (stereo not given)
group-label: 0
--
compound: Cl.O=C1CC(CN2CCC(C(=O)c3ccc(F)cc3)CC2)Cc2sccc21 (stereo not given)
group-label: 0

====

experimental-protocol: pA2 value was evaluated by measuring the inhibition of the 5-HT-induced contraction of rat aorta.
Type: functional, tissue-based

molecule: Cl.O=C(CCCN1CCN(CC2CC(=O)c3ccsc3C2)CC1)c1ccc(F)cc1 (stereo not given)
pA2: 7.79
--
molecule: O=C(c1ccc(F)cc1)C1CCN(CCC2CCc3ccccc3C2=O)CC1 (stereo not given)
pA2: 7.47
--
molecule: Cl.O=C(c1ccc(F)cc1)C1CCN(CCC2CCc3sccc3C2=O)CC1 (stereo not given)
pA2: 9.02
--
molecule: COc1ccccc1N1CCN(CCC2CCc3sccc3C2=O)CC1.Cl (stereo not given)
pA2: 6.95
--
molecule: O=C(CCCN1CCN(CC2CC(=O)c3ccccc3C2)CC1)c1ccc(F)cc1 (stereo not given)
pA2: 7.27

====

experimental-protocol: pA2 value was evaluated by measuring the inhibition of the 5-HT-induced contraction of rat aorta.
Assay type: functional, tissue-based
Catalogue of pA2 values

compound: COc1ccccc1N1CCN(CC2CC(=O)c3ccsc3C2)CC1.Cl (configuration not stated)
pA2: 5.9
//
compound: O=C(CCCN1CCN(CCC2CCc3ccccc3C2=O)CC1)c1ccc(F)cc1 (configuration not stated)
pA2: 7.35
//
compound: COc1ccccc1N1CCN(CC2CC(=O)c3ccccc32)CC1.Cl (configuration not stated)
pA2: 6.21
//
compound: Cl.O=C1CC(CN2CCC(C(=O)c3ccc(F)cc3)CC2)c2ccccc21 (configuration not stated)
pA2: 8.13
//
compound: O=C(c1ccc(F)cc1)C1CCN(CCC2CCCc3ccccc3C2=O)CC1 (configuration not stated)
pA2: 6.75
//
compound: COc1ccccc1N1CCN(CCC2CCc3ccccc3C2=O)CC1 (configuration not stated)
pA2: 6.72
//
compound: O=C(CCCN1CCN(CCC2Cc3ccccc3C2=O)CC1)c1ccc(F)cc1 (configuration not stated)
pA2: 7.3
//
compound: O=C(c1ccc(F)cc1)C1CCN(CCC2Cc3ccccc3C2=O)CC1 (configuration not stated)
pA2: 8.12
//
compound: O=C(CCCN1CCN(CCC2Cc3sccc3C2=O)CC1)c1ccc(F)cc1 (configuration not stated)
pA2: 7.63
//
compound: Cl.O=C1c2ccsc2CCC1CCN1CCC(c2noc3cc(F)ccc23)CC1 (configuration not stated)
pA2: 9.87
//
compound: Cl.O=C(CCCN1CCN(CC2CC(=O)c3ccccc32)CC1)c1ccc(F)cc1 (configuration not stated)
pA2: 7.2
//
compound: COc1ccccc1N1CCN(CC2CC(=O)c3ccccc3C2)CC1 (configuration not stated)
pA2: 6.48

====

experimental-target: 5-hydroxytryptamine receptor 2A (Rattus norvegicus, UniProt P14842)
Sequence (P14842 whole entry): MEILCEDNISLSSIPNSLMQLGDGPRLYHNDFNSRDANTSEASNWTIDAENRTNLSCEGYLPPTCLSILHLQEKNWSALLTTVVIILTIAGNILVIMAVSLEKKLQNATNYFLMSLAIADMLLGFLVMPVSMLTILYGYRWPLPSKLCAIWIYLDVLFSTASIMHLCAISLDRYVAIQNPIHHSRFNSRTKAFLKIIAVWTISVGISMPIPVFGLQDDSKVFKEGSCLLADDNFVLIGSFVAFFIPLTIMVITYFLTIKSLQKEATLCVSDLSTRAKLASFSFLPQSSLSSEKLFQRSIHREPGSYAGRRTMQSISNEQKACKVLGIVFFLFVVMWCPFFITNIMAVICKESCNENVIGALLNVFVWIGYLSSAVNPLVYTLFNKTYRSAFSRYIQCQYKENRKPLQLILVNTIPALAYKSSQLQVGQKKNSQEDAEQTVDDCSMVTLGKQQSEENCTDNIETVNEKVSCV
experimental-protocol: Compound was tested in vitro for its binding affinity towards 5-hydroxytryptamine 2A receptor from rat frontal cortex using [3H]-ketanserin as radioligand
Assay type: tissue-based
pKi: −log10 of the molar value.
measured-metric: pKi

compound: Cl.O=C(CCCN1CCN(CCC2CCc3sccc3C2=O)CC1)c1ccc(F)cc1 (configuration not stated)
experimental-target: 5-hydroxytryptamine receptor 2A (Rattus norvegicus, UniProt P14842)
observed: 6.54
--
compound: Cl.O=C1c2ccsc2CCC1CCN1CCC(c2noc3cc(F)ccc23)CC1 (configuration not stated)
experimental-target: 5-hydroxytryptamine receptor 2A (Rattus norvegicus, UniProt P14842)
observed: 8.56

====

Tested on: Mus musculus
experimental-protocol: In vivo Antipsychotic activity was quantified by inhibition of apomorphine-induced climbing(CL 95%) by mice
Assay type: functional
measured-metric: ED50 (mg/kg)

compound: Cl.O=C1c2ccsc2CC1CCN1CCC(c2noc3cc(F)ccc23)CC1 (centres undefined)
measured-metric: ED50
units: mg/kg
censoring-sign: =
observed: 0.47

compound: Cl.O=C1CC(CN2CCC(C(=O)c3ccc(F)cc3)CC2)c2ccccc21 (centres undefined)
measured-metric: ED50
units: mg/kg
censoring-sign: >
observed: 7

compound: O=C(CCCN1CCC(O)(c2ccc(Cl)cc2)CC1)c1ccc(F)cc1
measured-metric: ED50
units: mg/kg
censoring-sign: =
observed: 0.14

compound: Cl.O=C(c1ccc(F)cc1)C1CCN(CCC2CCc3ccsc3C2=O)CC1 (centres undefined)
measured-metric: ED50
units: mg/kg
censoring-sign: =
observed: 1.98

compound: Cl.O=C1CC(CN2CCC(C(=O)c3ccc(F)cc3)CC2)Cc2sccc21 (centres undefined)
measured-metric: ED50
units: mg/kg
censoring-sign: =
observed: 1.25

compound: CN1CCN(C2=Nc3cc(Cl)ccc3Nc3ccccc32)CC1
measured-metric: ED50
units: mg/kg
censoring-sign: =
observed: 2.21

compound: Cl.O=C1c2ccsc2CCC1CCN1CCC(c2noc3cc(F)ccc23)CC1 (centres undefined)
measured-metric: ED50
units: mg/kg
censoring-sign: =
observed: 0.79

compound: COc1ccccc1N1CCN(CCC2CCc3sccc3C2=O)CC1.Cl (centres undefined)
measured-metric: ED50
units: mg/kg
censoring-sign: >
observed: 8

compound: COc1ccccc1N1CCN(CC2CC(=O)c3ccsc3C2)CC1.Cl (centres undefined)
measured-metric: ED50
units: mg/kg
censoring-sign: >
observed: 8
